# System: WNK2
# run-conditions: concentration: 1 μM, replicates: in singlicate; n = 1;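 further: KINOMEscan kinase panel screen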
reported-endpoint: %Inh (%)
Could you give me the number in %? Just the number is fine.

The cases that follow already have their %Inh on record.
>  <molecule>
Cl.O=C(Nc1cccc(-c2nn3ncccc3c2-c2ccnc(Nc3cccnc3)n2)c1)c1c(F)cccc1F

>  <target-entity>
WNK2

>  <%Inh, %>
7

$$$$
>  <molecule>
Cl.Oc1ccc(-c2nc(-c3ccccc3)[nH]c2-c2ccncc2)cc1

>  <target-entity>
WNK2

>  <%Inh, %>
0

$$$$
>  <molecule>
Cc1ccc(NC(=O)Nc2cc(C(C)(C)C)nn2-c2ccccc2)cc1

>  <target-entity>
WNK2

>  <%Inh, %>
0

$$$$
>  <molecule>
Cc1cccc(-c2nc(-c3ccc(S(C)(=O)=O)cc3)sc2-c2ccnc(NCCc3ccccc3)c2)c1

>  <target-entity>
WNK2

>  <%Inh, %>
0

$$$$
>  <molecule>
COc1ccccc1-c1ccc2c(NC(=O)C3CC3)n[nH]c2n1

>  <target-entity>
WNK2

>  <%Inh, %>
0

$$$$
>  <molecule>
O=C(O)COc1ncnc2cc(-c3ccc4[nH]ncc4c3)sc12

>  <target-entity>
WNK2

>  <%Inh, %>
32

$$$$

Problem: // fetch WNK2 %Inh for CCn1c(-c2cccnc2O)nc2cnccc21
Result: 24

Problem: // fetch WNK2 %Inh for Cn1ccc2ncnc(Oc3ccc(Nc4nc5ccccc5[nH]4)cc3)c21
Result: 0

---

# System: FGFR4
# run-conditions: concentration: 1 μM, replicates: in singlicate; n = 1
reported-endpoint: %Inh (%)
Could you give me the number in %? Just the number is fine.

The cases that follow already have their %Inh on record.
>  <compound>
Cc1nnc(-c2ccc3occ(-c4ccc(S(C)=O)cc4)c3c2)[nH]1 (centres unmarked)

>  <number>
3

$$$$
>  <compound>
Cc1c(O)cccc1Nc1ccnc2ccc(C(F)(F)F)cc12.Cl

>  <number>
0

$$$$
>  <compound>
C[C@@H]1CCCCN1c1cc(-c2ccc3c(N)n[nH]c3c2)nc(N)n1

>  <number>
3

$$$$

Please examine the following record next.
Problem: Given the compound Cn1ccc2ncnc(Oc3ccc(Nc4nc5ccccc5[nH]4)cc3)c21 , what is its reported %Inh?
Result: 0

---

# Tested on: PAK2
# run-conditions: concentration: 1 μM, replicates: in singlicate; n = 1
Binary classification by %Inh, with 9% as an inclusive lower bound for true; all other cases are false.

>  <compound>
COc1cccc(NC(=O)NC2CCN(c3ccnc(Nc4ccc(F)cc4)n3)C2)c1 (centres unmarked)

>  <cat>
false

$$$$
>  <compound>
CN1C(=O)C(Nc2ccc(Cl)c(C(=O)O)c2)=C(c2ccc(Cl)cc2)C1=O

>  <cat>
true

$$$$
>  <compound>
O=C(Nc1ccc2c(c1)OCO2)NC1CCN(c2ccnc(Nc3ccc(F)cc3)n2)C1 (centres unmarked)

>  <cat>
true

$$$$
>  <compound>
COc1ccc(Nc2nccc(-c3cccc(NC(=O)c4cc5cc(F)ccc5[nH]4)c3)n2)cc1

>  <cat>
true

$$$$

Problem: %Inh >= 9% for Cc1ccc(NC(=O)Nc2cc(C(C)(C)C)nn2-c2ccccc2)cc1 ?
Result: false

Problem: %Inh >= 9% for CC(=O)Nc1nc2cnc(Nc3cc(NC(=O)c4cccc(CCC#N)c4)ccc3C)nc2s1 ?
Result: false

Problem: %Inh >= 9% for Cl.Oc1ccc(-c2nc(-c3ccccc3)[nH]c2-c2ccncc2)cc1 ?
Result: true
